# abundance fitness annotations
B1: Homeobox protein cut-like 1, residues 548 to 629; numbered along this chain, P39880 (parent)
chain: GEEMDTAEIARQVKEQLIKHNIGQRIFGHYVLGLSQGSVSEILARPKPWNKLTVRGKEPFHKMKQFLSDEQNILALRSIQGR

variants of: B1; assay: abundance fitness (aPCA) (normalised: wild type 0, dead -1); higher = more abundant; growth selection in yeast, the domain comes from the species named; settings: Homo sapiens
Reply briefly: the number, and no unit.

INSERT INTO results (mutation_annotation, result_value) VALUES
  ('V31K', -1.04),
  ('H20R', -0.464),
  ('N50V', -0.309),
  ('L74Y', -0.112),
  ('E70D', -0.043),
  ('S35F', -0.126),
  ('R45V', -0.228),
  ('M63G', -1.04);

Q. Query abundance fitness for L67K
A. -0.918

Q. Query abundance fitness for K64C
A. -0.273

Q. Query abundance fitness for S78P
A. -0.359

Q. Query abundance fitness for K62T
A. -0.305

Q. Query abundance fitness for E3C
A. -0.142

Q. Query abundance fitness for V54N
A. 0.08

Q. Query abundance fitness for I9Y
A. -0.495

Q. Query abundance fitness for V31E
A. -0.681

Q. Query abundance fitness for L52V
A. -0.879

Q. Query abundance fitness for I26A
A. -0.056

Q. Query abundance fitness for Q36H
A. -0.017

Q. Query abundance fitness for I42D
A. -0.723

Q. Query abundance fitness for I26W
A. -0.083

Q. Query abundance fitness for E41G
A. -0.293

Q. Query abundance fitness for P48I
A. -0.438

Q. Query abundance fitness for E3I
A. -0.081

Q. Query abundance fitness for L34N
A. -0.362

Value source: the Human Domainome abundance scans (Beltran et al. 2025)
